# system_tested: KCNQ2/3 channels (Homo sapiens, UniProt O43525+O43526)
# Construct: expressed in transfected cells
# Sequence (O43526 whole entry): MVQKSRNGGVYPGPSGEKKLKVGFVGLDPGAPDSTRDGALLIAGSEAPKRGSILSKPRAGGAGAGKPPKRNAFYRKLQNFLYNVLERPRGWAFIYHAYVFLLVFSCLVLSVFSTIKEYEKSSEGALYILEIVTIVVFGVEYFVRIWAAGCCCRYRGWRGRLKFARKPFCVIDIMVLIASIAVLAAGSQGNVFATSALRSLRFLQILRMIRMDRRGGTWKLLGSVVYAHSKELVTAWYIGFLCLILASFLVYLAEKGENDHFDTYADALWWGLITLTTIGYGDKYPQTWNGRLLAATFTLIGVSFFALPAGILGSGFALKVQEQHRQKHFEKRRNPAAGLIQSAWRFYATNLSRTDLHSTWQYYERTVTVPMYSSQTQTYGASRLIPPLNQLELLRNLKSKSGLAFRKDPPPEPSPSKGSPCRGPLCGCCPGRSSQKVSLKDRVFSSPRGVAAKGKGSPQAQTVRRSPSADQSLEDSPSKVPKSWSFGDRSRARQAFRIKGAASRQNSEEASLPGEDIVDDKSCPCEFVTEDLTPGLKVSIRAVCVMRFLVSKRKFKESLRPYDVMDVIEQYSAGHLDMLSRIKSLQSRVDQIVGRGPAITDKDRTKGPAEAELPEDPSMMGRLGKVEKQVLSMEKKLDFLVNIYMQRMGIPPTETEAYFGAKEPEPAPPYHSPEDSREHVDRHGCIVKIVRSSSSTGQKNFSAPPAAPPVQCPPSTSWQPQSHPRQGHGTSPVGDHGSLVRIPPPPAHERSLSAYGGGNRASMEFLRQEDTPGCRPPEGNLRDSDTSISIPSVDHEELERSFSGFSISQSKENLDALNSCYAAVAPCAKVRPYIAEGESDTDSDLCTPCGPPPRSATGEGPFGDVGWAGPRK
# Sequence (O43525 whole entry): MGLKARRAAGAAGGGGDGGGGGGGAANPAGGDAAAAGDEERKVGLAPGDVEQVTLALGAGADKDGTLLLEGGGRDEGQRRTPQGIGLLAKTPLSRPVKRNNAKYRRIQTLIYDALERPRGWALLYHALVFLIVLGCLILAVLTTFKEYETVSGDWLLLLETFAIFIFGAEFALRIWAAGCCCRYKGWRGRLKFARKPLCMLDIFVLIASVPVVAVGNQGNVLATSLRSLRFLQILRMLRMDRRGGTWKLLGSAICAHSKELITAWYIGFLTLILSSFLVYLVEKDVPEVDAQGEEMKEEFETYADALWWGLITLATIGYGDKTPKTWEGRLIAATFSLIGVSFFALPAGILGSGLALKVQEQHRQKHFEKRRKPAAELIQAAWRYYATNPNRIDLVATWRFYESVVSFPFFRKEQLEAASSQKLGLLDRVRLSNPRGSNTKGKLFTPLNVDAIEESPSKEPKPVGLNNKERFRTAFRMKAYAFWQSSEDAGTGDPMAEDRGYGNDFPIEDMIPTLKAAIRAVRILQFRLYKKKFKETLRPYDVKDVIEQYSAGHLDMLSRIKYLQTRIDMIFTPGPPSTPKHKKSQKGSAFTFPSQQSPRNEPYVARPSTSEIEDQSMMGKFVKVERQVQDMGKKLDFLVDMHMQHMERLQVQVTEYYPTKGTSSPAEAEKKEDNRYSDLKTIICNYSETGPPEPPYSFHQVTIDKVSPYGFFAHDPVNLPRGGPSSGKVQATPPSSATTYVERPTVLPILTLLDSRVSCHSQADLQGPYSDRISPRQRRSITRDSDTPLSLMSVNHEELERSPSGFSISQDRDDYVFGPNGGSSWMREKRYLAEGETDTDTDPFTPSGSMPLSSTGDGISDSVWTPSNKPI
# assay_text: Fluorescence assay using a voltage sensitive dye (fluorimetry)
# Type: cell-based
# Description: Method I. Fluorescence Assay Using a Voltage Sensitive Dye (Fluorimetry) These voltage-sensitive dyes are fluorescent dyes and, therefore, are forming the link between cell potential influenced by KCNQ modulation and fluorescence intensity. A KCNQ agonist leads to an opening of the channel, potassium and dye efflux, a following hyperpolarization and a reduction of the inner fluorescence intensity in a kinetic protocol. […] The cell number is determined using a CASY™ cell counter (TCC, Schärfe System). […]
Would you mind telling me the reported EC50 of each entry?
Just the number please, in nM, no unit attached.

Recorded EC50 for COCCc1nc(N2CCOCC2)cc(C)c1C(=O)NCCCC(C)(C)C , please? 1130

Recorded EC50 for CCc1cc(N2CCOCC2)nc(CC)c1C(=O)NCc1ccc(Cl)cc1 , please? 237

----------
# system_tested: KCNQ2/3 channels (Homo sapiens, UniProt O43525+O43526)
# Construct: expressed in transfected cells
# assay_text: Fluorescence assay using a voltage sensitive dye (fluorimetry)
# Format: cell-based
# test_settings: CHO-K1, plateau effect relative to saturated retigabine (50 μM) = 100%; CHO-K1 cells expressing KCNQ2/3; negative values = antagonistic; read-out: Fluorimetry % efficacy (retigabine = 100%)
experimental_readout: Emax
Report the figure along with its unit, number first.

Recorded Emax for CCSc1nc(N2CCOCC2)cc(C)c1C(=O)NCCOC(C)(C)C , please? 182%

Recorded Emax for COCc1nc(N2CCOCC2)cc(C)c1C(=O)NCc1cccc(F)c1 , please? 140%

Recorded Emax for CSc1nc(N2CCOC[C@H]2C)cc(C)c1C(=O)NCc1ccc(F)cc1 , please? 215%

Recorded Emax for CCSc1nc(N2CCOCC2)cc(C)c1C(=O)NCC(=O)CC(C)(C)C , please? 166%

Recorded Emax for CSc1nc(N2CCOCC2)cc(C)c1C(=O)NCc1ccc(Cl)cc1 , please? 149%

Recorded Emax for CCSc1nc(N2CCOCC2)cc(C)c1C(=O)NCC1CCCCC1 , please? 179%

Recorded Emax for C/C=C/c1nc(N2CCOCC2)cc(C)c1C(=O)NCc1cccc(F)c1 , please? 174%

Recorded Emax for CCSc1nc(N2CCC(OC)C2)cc(C)c1C(=O)NCc1cccc(F)c1 (stereo not shown) , please? 144%

Recorded Emax for CCSc1nc(N2CCOCC2)cc(C)c1C(=O)NCc1cccc(Cl)c1 , please? 152%

Recorded Emax for CCOc1nc(N2CCOC[C@H]2C)cc(C)c1C(=O)NCc1ccc(Cl)cc1 , please? 163%

Recorded Emax for CCSc1nc(N2CC3CC2CO3)cc(C)c1C(=O)NCc1cccc(F)c1 (stereo not shown) , please? 149%

Recorded Emax for CCSc1nc(N2CCOCC2)cc(C)c1C(=O)NCc1ccc(F)cc1O , please? 224%

Recorded Emax for CCSc1nc(N2CCOCC2)cc(C)c1C(=O)NCC1CCCCO1 (stereo not shown) , please? 160%

Recorded Emax for COc1nc(N2CCOCC2)cc(C)c1C(=O)NCCCC(F)(F)F , please? 227%

Recorded Emax for CCSc1nc(N2CC3(COC3)C2)cc(C)c1C(=O)NCc1cccc(F)c1 , please? 92%

Recorded Emax for Cc1cc(N2CCOCC2)nc(C2CC2)c1C(=O)NCc1cccc(F)c1 , please? 156%

Recorded Emax for CCSc1nc(N2CCOCC2)cc(C(F)(F)F)c1C(=O)NCc1cccc(F)c1 , please? 41%

Recorded Emax for CCCc1nc(N2CCOCC2)cc(C)c1C(=O)NCc1ccc(F)c(F)c1 , please? 162%

Recorded Emax for CCSc1nc(N(C)Cc2ccccn2)cc(C)c1C(=O)NCc1cccc(F)c1 , please? 35%

Recorded Emax for CCC(C)c1nc(N2CCOCC2)cc(C)c1C(=O)NCCCC(C)(C)C (stereo not shown) , please? 259%

Recorded Emax for CCSc1nc(N2CCOCC2)cc(C)c1C(=O)NCc1ccccc1-c1ccccc1 , please? -97%

Recorded Emax for CCSc1nc(N2CCOCC2)cc(C)c1C(=O)NCCCc1ccccn1 , please? 53%

Recorded Emax for CCSc1nc(N2CCOCC2)cc(C)c1C(=O)NCCCC1(C)COC1 , please? 163%

Recorded Emax for Cc1cc(N2CCOCC2)nc(OCCN(C)C)c1C(=O)NCc1ccc(Cl)cc1 , please? 22%

Recorded Emax for CCSc1nc(N(C)C2CCOC2)cc(C)c1C(=O)NCCCC(C)(C)C (stereo not shown) , please? 194%

Recorded Emax for CCSc1nc(N2CCOCC2)cc(C)c1C(=O)NCCCOC , please? 31%

Recorded Emax for COc1nc(N2CCCOCC2)cc(C)c1C(=O)NCc1cccc(F)c1 , please? 146%

Recorded Emax for Cc1cc(N2CCOCC2)nc(OCC2CC2)c1C(=O)NCc1ccc(Cl)cc1 , please? 128%

Recorded Emax for CCSc1nc(N(CCCOC)Cc2ccc(F)cc2)cc(C)c1C(=O)NCc1cccc(F)c1 , please? 73%

Recorded Emax for CCSc1nc(N2CCOCC2)cc(C)c1C(=O)NCc1cc(F)cc(C(F)(F)F)c1 , please? 103%

Recorded Emax for CCSc1nc(N2CCOCC2)cc(C)c1C(=O)NCc1ccc(F)cn1 , please? 143%

Recorded Emax for CCSc1nc(N(C)c2ccccc2)cc(C)c1C(=O)NCc1cccc(F)c1 , please? 93%

Recorded Emax for CCSc1nc(N2CCOCC2)cc(C)c1C(=O)NCC(C)CC(C)(C)C (stereo not shown) , please? 33%

Recorded Emax for CCCCCCCNC(=O)c1c(C)cc(N2CCOCC2)nc1SCC , please? 192%

Recorded Emax for CCSc1nc(N2CCC(OC)CC2)cc(C)c1C(=O)NCc1cccc(F)c1 , please? 143%

Recorded Emax for Cc1cc(N2CCOCC2)nc(C(C)C)c1C(=O)NCc1ccc(F)cc1 , please? 168%

Recorded Emax for CCOc1nc(N2CCOCC2)cc(C)c1C(=O)NCc1ccc(C(F)(F)F)cc1 , please? 122%
